# assayComment: log P by HPLC on reversed-phase column (C 18), EEC Directive 79/831 Annex V.A8
# Type: physicochemical
# testConditions: Table 1, compounds of formula (I); HPLC C 18, 40° C., 0.1% aqueous formic acid and acetonitrile, gradient 10% to 90% acetonitrile
Field: label. Allowed values: Y (logP < 5) or N (logP >= 5).

[
  {
    "compound": "Cn1cc(C(=O)N(Cc2ccccc2[Si](C)(C)c2cccc3ccccc23)C2CC2)c(C(F)F)c1 [I.28]",
    "cat": "N"
  },
  {
    "compound": "Cn1cc(C(=O)N(Cc2ccccc2[Si](C)(C)c2cccc3ccccc23)C2CC2)c(C(F)F)n1 [I.26]",
    "cat": "Y"
  },
  {
    "compound": "Cn1cc(C(=O)N(Cc2ccccc2[Si](C)(C)c2ccccc2)C2CC2)c(C(F)F)n1 [I.3]",
    "cat": "Y"
  },
  {
    "compound": "Cn1cc(C(=O)N(Cc2ccccc2[Si](C)(C)c2ccc(Oc3ccccc3)cc2)C2CC2)c(C(F)F)c1 [I.23]",
    "cat": "N"
  },
  {
    "compound": "Cc1nc(C(F)F)c(C(=O)N(Cc2ccccc2[Si](C)(C)c2cccs2)C2CC2)s1 [I.36]",
    "cat": "Y"
  },
  {
    "compound": "Cn1nc(C(F)F)c(C(=O)N(Cc2ccccc2[Si](C)(C)c2ccc(Cl)cc2)C2CC2)c1F [I.6]",
    "cat": "N"
  },
  {
    "compound": "C[Si](C)(c1cccs1)c1ccccc1CN(C(=O)c1ccsc1I)C1CC1 [I.34]",
    "cat": "N"
  },
  {
    "compound": "Cc1nc(C(F)F)c(C(=O)N(Cc2ccccc2[Si](C)(C)c2ccc(Cl)cc2)C2CC2)s1 [I.12]",
    "cat": "N"
  },
  {
    "compound": "Cn1nc(C(F)F)c(C(=O)N(Cc2ccccc2[Si](C)(C)c2cccs2)C2CC2)c1F [I.33]",
    "cat": "Y"
  }
]

Shifting focus to the compound that follows.
**Q:** Confirm or reject: logP of Cn1cc(C(=O)N(Cc2ccccc2[Si](C)(C)c2ccc(Cl)cc2)C2CC2)c(C(F)F)n1 [I.7] lies strictly below 5
**A:** Y
